So I've got a bunch of compounds here, and I need their pEC50 values.
# Test system: HCV genotype 1b replicon
# experiment.summary: HCV replicon assay, genotype 1b replicon EC50
# Type: cell-based, Hepatitis C virus
# condition: Hepatitis C virus, HCV replicon, genotype 1b; read-out: EC50 [gt-1b]
One number for each entry, as −log10 of the molar value.

These recorded examples may help you get a feel for the data.
1) Cc1nc2ccc(OCCN3CCOCC3)cc2c2c1O[C@]1(CC2)C[C@H]2C(=O)N[C@]3(C(=O)NS(=O)(=O)C4(C)CC4)C[C@H]3/C=C\CCCCC[C@H](NC(=O)OC(C)(C)C)C(=O)N2C1 | 8.20
2) CCc1nc2ccc(OC)cc2c2c1O[C@]1(CC2)C[C@H]2C(=O)N[C@]3(C(=O)NS(=O)(=O)C4(C)CC4)C[C@H]3/C=C\CCCCC[C@H](NC(=O)O[C@@H](C)C(C)C)C(=O)N2C1 | 8.75

Attention now turns to another entry.
Q: Sample COCC1(S(=O)(=O)NC(=O)[C@@]23C[C@H]2/C=C\CCCCC[C@H](NC(=O)OC2(C)CCC2)C(=O)N2C[C@@]4(CCc5c(c(C(F)(F)F)nc6ccc(OC)cc56)O4)C[C@H]2C(=O)N3)CC1 — what was its pEC50?
A: 8.84
